biological target: T1, AAPSSWGPRPRRK-Biotin (human); experiment: peptide scanning ELISA, biotin peptide on streptavidin
T1 construct: Overlapping peptide of the outer loop of human LAG-3; also called LAG-3 Extra cyclic peptide
T1 peptide: AAPSSWGPRPRRK-{Biotin′}
Primed or numbered codes have the meaning given here. No end group written: not given here. Biotin′ = biotin label at the C-terminus
MEASURED PROPERTY: binding result

105F1E10 (mouse antibody purified from hybridoma) (antibody, V domains shown, also called mAb009-105F1E10) VH: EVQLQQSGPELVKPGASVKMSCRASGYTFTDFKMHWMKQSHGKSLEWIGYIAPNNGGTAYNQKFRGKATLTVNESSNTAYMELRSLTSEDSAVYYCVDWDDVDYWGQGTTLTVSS VL: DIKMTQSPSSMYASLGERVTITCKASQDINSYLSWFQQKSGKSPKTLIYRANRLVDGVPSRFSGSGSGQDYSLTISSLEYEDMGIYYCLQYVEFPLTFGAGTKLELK :: binds
